- assay_procedure: Therapeutic index, ratio of CC50 for human C8166 cells to EC50 for HIV1
- Assay type: cell-based
- stated_conditions: read-out: Ratio CC50/EC50
property_label: selectivity ratio
Form rule: numeric answer, no unit written next to it.

Solved cases below.
1) COc1ccc([C@@H](c2ccc3c(c2)OCO3)[C@H](C(=O)O)C(CO)CO)cc1O [MARLPHENOL F]: 27.6
2) COc1cc(C(O)C(C(=O)O)C(CO)CO)cc(O)c1OC (stereo not given) [MARPHENOL D]: 29.1
3) COc1c2c(cc3c1-c1c(cc4c(c1O)OCO4)C[C@H](C)[C@H](C)[C@H]3OC)OCO2 [MARLIGNAN P]: 23.5
4) COc1cc(C(O)C(C(=O)O)C(CO)CO)ccc1O (stereo not given) [MARPHENOL C]: 26.9

Now turn to the next compound.
Using the record for COc1cc2c(c(O)c1OC)-c1c(cc3c(c1OC)OCO3)[C@H](OC)[C@@H](C)[C@@H](C)C2 [MARLIGNAN R] , report its selectivity ratio. 9.48
